Measured cell viability, listed per entry for reference.
test system: U2OS; test: cell viability relative to DMSO; higher = less toxic; conditions: 72 h; 10000 nM

[
  {
    "Compound": "CS(=O)(=O)N(Cc1ccco1)C[C@@H](O)Cn1c2ccccc2c2ccccc21",
    "Unit Annotation": "%",
    "cell viability": 90
  },
  {
    "Compound": "COc1cc(C)[nH]c(=O)c1CNC(=O)c1c(C)n([C@H](C)C2CCOCC2)c2ccccc12",
    "Unit Annotation": "%",
    "cell viability": 101
  },
  {
    "Compound": "O=C(CN1C2=NCCN2c2ccccc21)c1ccc(-c2ccccc2)cc1",
    "Unit Annotation": "%",
    "cell viability": 90.6
  },
  {
    "Compound": "CC(C)(C)NCC(O)CSc1nc(-c2ccc(C(N)=O)s2)cs1 (stereo not given)",
    "Unit Annotation": "%",
    "cell viability": 94.6
  },
  {
    "Compound": "CCc1cnc(N2CCC(c3nc(COc4ccc(-n5cnnn5)cc4)cs3)CC2)nc1",
    "Unit Annotation": "%",
    "cell viability": 93.7
  }
]

====

test system: Caco-2; test: cell viability relative to DMSO; higher = less toxic; conditions: 72 h; 100 nM
Counter-ions that a name gives are not always drawn.

[
  {
    "Molecule": "COc1ccc2c(NC(=O)Nc3cccc(C(F)(F)F)n3)ccnc2c1",
    "cell viability (%)": 100
  },
  {
    "Molecule": "CC(C)[C@@H](C)/C=C/[C@@H](C)[C@H]1CC[C@H]2/C(=C/C=C3\\C[C@@H](O)CC[C@@H]3C)CCC[C@]12C [dihydrotachysterol]",
    "cell viability (%)": 100
  },
  {
    "Molecule": "NC[C@H]1O[C@H](O[C@H]2[C@H](O)[C@@H](O[C@H]3O[C@H](CO)[C@@H](O)[C@H](N)[C@H]3O)[C@H](N)C[C@@H]2N)[C@H](N)C[C@@H]1O [tobramycin]",
    "cell viability (%)": 104
  },
  {
    "Molecule": "COC(=O)C1=C(C)NC(C)=C(C(=O)OCC(C)C)C1c1ccccc1[N+](=O)[O-] (stereo not given) [nisoldipine]",
    "cell viability (%)": 99.1
  },
  {
    "Molecule": "CN1C(=O)N(C)C2C1N(C)C(=O)N2C (stereo not given) [mebicar]",
    "cell viability (%)": 98.5
  },
  {
    "Molecule": "NC(=O)c1cn([C@@H]2O[C@H](CO)[C@@H](O)[C@H]2O)c2ncnc(N)c2c1=O [API-1]",
    "cell viability (%)": 85
  },
  {
    "Molecule": "C[C@H]1O[C@@H](O[C@H]2CC[C@@]3(C)[C@H](CC[C@@H]4[C@@H]3C[C@@H](O)[C@]3(C)[C@@H](C5=CC(=O)OC5)CC[C@]43O)C2)C[C@H](O)[C@@H]1O[C@H]1C[C@H](O)[C@H](O[C@H]2C[C@H](O)[C@H](O[C@@H]3O[C@H](CO)[C@@H](O)[C@H](O)[C@H]3O)[C@@H](C)O2)[C@@H](C)O1 [deslanoside]",
    "cell viability (%)": 69.8
  },
  {
    "Molecule": "CC(C)(C)c1ccc(/C=C/C(=O)Nc2ccc3c(c2)OCCO3)cc1 [AMG-9810]",
    "cell viability (%)": 99.3
  },
  {
    "Molecule": "COc1cc(N)c(Cl)cc1C(=O)NC1CN2CCC1CC2 (stereo not given) [zacopride]",
    "cell viability (%)": 97.6
  },
  {
    "Molecule": "Nc1ccc(C(=O)NCC(=O)O)cc1 [4-aminohippuric-acid]",
    "cell viability (%)": 100
  },
  {
    "Molecule": "COc1cccc(OC)c1OCCNC[C@H]1COc2ccccc2O1 [WB-4101]",
    "cell viability (%)": 106
  },
  {
    "Molecule": "CCCCCCN(CCCCCC)C(=O)Cc1c(-c2ccc(F)cc2)[nH]c2ccccc12 [FGIN-1-27]",
    "cell viability (%)": 89.2
  },
  {
    "Molecule": "N#Cc1cnc2c(Cl)cc(NCc3cn(CCN4CCCCCC4)nn3)cc2c1Nc1ccc(F)c(Cl)c1 [cot-inhibitor-1]",
    "cell viability (%)": 105
  },
  {
    "Molecule": "Cn1cnc2c(NCc3ccccc3)nc(NCCO)nc21 [olomoucine]",
    "cell viability (%)": 92.5
  },
  {
    "Molecule": "CN(C)CCOc1ccc(/C(=C(/CCCl)c2ccccc2)c2ccccc2)cc1 [Toremifene citrate]",
    "cell viability (%)": 93.7
  }
]
